Target: UniProt:P00734
Test: Determination of inhibition constants for thrombin
Type: biochemical
pKi: −log10 of the molar value.
Recorded endpoint: pKi

Look over these answered cases.
# returns recorded pKi (system: UniProt:P00734) for N=C(N)c1ccc(CNC(=O)[C@H](CCc2ccccc2)NC(=O)[C@@H](CCCc2ccccc2)NS(=O)(=O)Cc2ccccc2)cc1 [compound 34]
> 7.00

Give pKi (UniProt:P00734) of the following molecule: COC(=O)c1ccc(CS(=O)(=O)N[C@H](COC(C)(C)C)C(=O)N[C@@H](Cc2cccc(CN)c2)C(=O)NCc2ccc(C(=N)N)cc2)cc1 [compound 64]
< 6.00

---
Under UniProt:P00734: pKi value of N=C(N)c1ccc(CNC(=O)[C@H](Cc2cccc(CN)c2)NC(=O)[C@@H](CCCc2ccc(Cl)cc2)NS(=O)(=O)Cc2ccccc2)cc1 [compound 7] ?
> 7.00

All values here come from patent US8410310B2.
